// data source = patent US20220195015A1

target: SARS-CoV-2 spike protein receptor binding domain (RBD) (SARS-CoV-2, UniProt P0DTC2 319-539); experiment: ELISA on coated RBD protein
OBSERVATION TYPE: log10 of EC50 (log10 of the value in ng/mL)
Transform log10 | Measure EC50 | Unit ng/mL

Previously resolved entries follow.
C088 (antibody, V domains shown) VH: QVQLVQSGAEAKKPGASVKVSCKTSGYTFTNYFMHWVRQAPGQGPEWMGIIDSSDGGASYAQKFQGRVTMTRDTSTSTVYMELRSLKFEDTAVYYCARASTSTTSWSDALSLGSWGQGTLVTVSS VL: QSVLTQPPSVSGAPGQRVTISCTGSSSNIGGGSVVHWYQQLPGTAPKLLIYANSNRPSGVPDRFSGSKSGTSASLAIAGLQAEDEADYYCQSWDNGLSASGVVFGGGTKLTVL
0.39
C062 (antibody, V domains shown) VH: EVQLVESGGGLVKPGGSLRLTCAASGFTFSTYSMNWVRQAPGKGLEWVSSISSSSSYIYYADSVKGRFTISRDNAKNSLYLQMNSLRAEDTAVYYCARERGYYGGKTPPFLGGQGTLVTVSS VL: NFMLTQPHSVSESPGKTVTISCTGSSGSIASNYVQWYQQRPGSAPTTVIYEDNQRPSGVPDRFSGSIDSSSNSASLTISGLKTEDEADYYCQSYDSSNYWVFGGGTKLTVL
0.67

Then this binder:
Quote log10 of EC50 reported for C051 (antibody, V domains shown) VH: EVQLVESGGGLIQAGGSLRLSCAASGFGVRNNYMSWVRQAPGKGLEWVSVIYSGGTTYYADSVKGRFTISRDNSKNTVFLQMNSLRAEDTAVYYCAREGDVEGFSDLWSGYSRDRYYFDYWGQGTLVTVSS VL: QSALTQPASVSGSPGQSITFSCTGTSSDVGGYNYVSWYQQYPGKAPKLLIYDVTNRPSGVSDRFSGSKSGNTASLTISGLQAEDEADYYCSSFTSSNTRVFGTGTKVTVL please. 0.22
